biological target: 5-HT2C receptors (Sus scrofa, UniProt K7GSR7); test: Binding activity against 5-hydroxytryptamine 2C receptor from pig cortex membrane using [3H]mesulergine as radioligand; NA Not Available
Property Label: pIC50
// pIC50 here means minus log10 of the molar concentration (mol/L)

Given the entry CN(C)CCc1c[nH]c2ccc(Cn3ccnn3)cc12 , report its measured pIC50. 5.20

###

IC50 values, listed per item
Target: Serotonin 3 (5-HT3) receptor (Rattus norvegicus, UniProt P35563+Q9JJ16)
Sequence (P35563 whole entry): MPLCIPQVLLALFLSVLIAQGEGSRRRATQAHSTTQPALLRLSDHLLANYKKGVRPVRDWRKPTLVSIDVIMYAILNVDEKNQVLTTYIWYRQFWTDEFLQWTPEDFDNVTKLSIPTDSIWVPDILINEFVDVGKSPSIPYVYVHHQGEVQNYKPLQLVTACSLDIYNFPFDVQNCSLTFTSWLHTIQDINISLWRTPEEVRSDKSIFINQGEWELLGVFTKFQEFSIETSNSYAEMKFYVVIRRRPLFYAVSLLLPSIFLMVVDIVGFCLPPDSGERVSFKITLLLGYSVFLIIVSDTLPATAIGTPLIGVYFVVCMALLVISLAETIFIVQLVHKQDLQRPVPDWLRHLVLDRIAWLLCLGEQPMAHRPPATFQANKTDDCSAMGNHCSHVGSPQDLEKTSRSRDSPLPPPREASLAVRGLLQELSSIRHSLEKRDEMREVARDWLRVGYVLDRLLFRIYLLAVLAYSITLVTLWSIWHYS
Sequence (Q9JJ16 whole entry): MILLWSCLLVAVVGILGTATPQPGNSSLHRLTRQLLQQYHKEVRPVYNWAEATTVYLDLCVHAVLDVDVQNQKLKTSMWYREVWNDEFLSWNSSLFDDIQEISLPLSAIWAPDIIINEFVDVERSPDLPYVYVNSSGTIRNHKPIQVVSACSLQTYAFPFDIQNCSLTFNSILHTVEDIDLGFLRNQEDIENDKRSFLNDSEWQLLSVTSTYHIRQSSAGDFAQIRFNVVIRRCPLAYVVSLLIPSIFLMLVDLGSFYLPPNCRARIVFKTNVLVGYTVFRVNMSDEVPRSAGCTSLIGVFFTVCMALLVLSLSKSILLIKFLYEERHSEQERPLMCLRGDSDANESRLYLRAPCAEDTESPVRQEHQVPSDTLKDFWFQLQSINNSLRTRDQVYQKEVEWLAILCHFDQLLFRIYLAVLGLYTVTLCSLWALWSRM
Assay: Inhibition of [3H]-Q-ICS 205-930 binding to rat cortex homogenate 5-hydroxytryptamine 3 receptor

Some solved entries appear below for comparison.
{"Given Smiles": "CN(C)CCc1c[nH]c2ccc(Cn3ccnc3)cc12", "Measured Target": "Serotonin 3 (5-HT3) receptor (Rattus norvegicus, UniProt P35563+Q9JJ16)", "Result": "1.26 µM"}
{"Given Smiles": "CN(C)CCc1c[nH]c2ccc(Cc3nnnn3C)cc12", "Measured Target": "Serotonin 3 (5-HT3) receptor (Rattus norvegicus, UniProt P35563+Q9JJ16)", "Result": "5.01 µM"}
{"Given Smiles": "CN(C)CCc1c[nH]c2ccc(Cc3nnn(C)n3)cc12", "Measured Target": "Serotonin 3 (5-HT3) receptor (Rattus norvegicus, UniProt P35563+Q9JJ16)", "Result": "2.51 µM"}
{"Given Smiles": "CN(C)CCc1c[nH]c2ccc(Cn3cnnn3)cc12", "Measured Target": "Serotonin 3 (5-HT3) receptor (Rattus norvegicus, UniProt P35563+Q9JJ16)", "Result": "1.26 µM"}
{"Given Smiles": "Cc1nccn1-c1ccc2[nH]cc(CCN(C)C)c2c1", "Measured Target": "Serotonin 3 (5-HT3) receptor (Rattus norvegicus, UniProt P35563+Q9JJ16)", "Result": "3.16 µM"}

Form: Entry = CN(C)CCc1c[nH]c2ccc(Cn3ncnn3)cc12 | System = Serotonin 3 (5-HT3) receptor (Rattus norvegicus, UniProt P35563+Q9JJ16) | IC50 = ____ 3.16 µM

Form: Entry = CCn1nnc(Cc2ccc3[nH]cc(CCN(C)C)c3c2)n1 | System = Serotonin 3 (5-HT3) receptor (Rattus norvegicus, UniProt P35563+Q9JJ16) | IC50 = ____ 2.51 µM
